Tested on: HCT-116
Test: NCI tumour cell line growth inhibition, 48 h
Active and inactive are the calls of the source. No stated cut-off is given here; in the data, active = GI50 up to about 1.1 µM and inactive = higher.
Labels: 1 (yes) (active), 0 (no) (inactive)

- molecule: "OCc1ccc2c(c1)CC1(Cc3ccccc3C1)C2"
  target: "HCT-116"
  label: "0 (no)"
- molecule: "COC(=O)CCC(C)C1CCC2C3C(C[C@H](OC(C)=O)[C@]12C)[C@@]1(C)CCC2(C[C@H]1C[C@H]3OC(C)=O)OOC1(CC[C@]3(C)C4C[C@H](OC(C)=O)[C@]5(C)C(C(C)CCC(=O)OC)CCC5C4[C@H](OC(C)=O)C[C@@H]3C1)OO2 (some centres undefined)"
  target: "HCT-116"
  label: "0 (no)"
- molecule: "O=C(CSc1nc2ccc(Cl)cc2c(=O)n1-c1ccccc1)N/N=C1\\C(=O)Nc2ccc(F)cc21"
  target: "HCT-116"
  label: "0 (no)"
- molecule: "O=C(Nc1ccc(N2C(=O)CSC2c2cccs2)cc1)c1ccc(N2C(=O)CSC2c2cccs2)cc1 (centres undefined)"
  target: "HCT-116"
  label: "0 (no)"
- molecule: "CC(C)C1CC(CO)(CNc2nc(N)nc(Cl)c2/C=N\\O)C1 (centres undefined)"
  target: "HCT-116"
  label: "0 (no)"
- molecule: "Nc1cc2c3c(c1)Oc1cc(N)cc4c1C3c1c(cc(N)cc1O4)O2"
  target: "HCT-116"
  label: "0 (no)"
- molecule: "O=C1c2ccccc2C(=O)c2c(NC(=O)C3CC3)ccc(NC(=O)C3CC3)c21"
  target: "HCT-116"
  label: "0 (no)"
- molecule: "CC(NC(=O)Cc1ccccc1)NC(=O)C(C)C(=O)NCc1ccccc1 (centres undefined)"
  target: "HCT-116"
  label: "0 (no)"
- molecule: "Cn1c2ccccc2n2c3ncccc3c(=O)c(C#N)c12"
  target: "HCT-116"
  label: "0 (no)"
- molecule: "COc1nc(N)nc2nc[nH]c12"
  target: "HCT-116"
  label: "0 (no)"
- molecule: "COc1cc(C=C(c2ccc(N(C)C)cc2)c2ccc(N(C)C)cc2)c2ccccc2c1OC"
  target: "HCT-116"
  label: "0 (no)"
- molecule: "O=C(NNC(=S)NCc1ccccc1)C12CC3CC(CC(C3)C1)C2"
  target: "HCT-116"
  label: "0 (no)"
- molecule: "Cc1ccc([N+](=O)[O-])cc1S(=O)(=O)Nc1ccc(C2=NNC(c3cccs3)C2)cc1 (centres undefined)"
  target: "HCT-116"
  label: "0 (no)"
- molecule: "C[C@]12CC[C@H](OC(=O)Cc3ccc(N(CCCl)CCCl)cc3)CC1CC[C@@H]1C2CC[C@]2(C)NC(=O)CCC12 (some centres undefined)"
  target: "HCT-116"
  label: "0 (no)"
- molecule: "CCOC(=O)C(SCCO)C(C(=O)OCC)n1cc(C)c(=O)[nH]c1=O (centres undefined)"
  target: "HCT-116"
  label: "0 (no)"
- molecule: "O=C1Sc2cc3ccccc3cc2C(=O)Sc2ccc(Br)cc21"
  target: "HCT-116"
  label: "0 (no)"
- molecule: "CC(=O)n1cc(OP(=O)(Oc2ccccc2)Oc2ccccc2)c2ccccc21"
  target: "HCT-116"
  label: "0 (no)"
- molecule: "C=C(C)[C@H]1Cc2c(ccc3c2O[C@@H]2COc4cc(OC)c(OC)cc4[C@@H]2C3=O)O1"
  target: "HCT-116"
  label: "1 (yes)"
- molecule: "O=C1CCC2(c3ccccc3)Nc3ccncc3N12 (centres undefined)"
  target: "HCT-116"
  label: "0 (no)"
